From: patent US11236069B2

Experimental target: Recombinant human KIF18A (1-467 His-tagged) protein (Homo sapiens (Human))
Assay info: KIF18A Enzyme Assay: microtubule-stimulated ATPase activity (ADP-Glo)
Experimental conditions: read-out: KIF18A ATPase IC50; 30 nM KIF18A, 30 μg/mL pig microtubules, ATP at Km 75 μM, ADP-Glo luminescence
Value kind: IC50 (nM)
// note: answer is a bare numeric in nM

>  <Molecule>
Cc1cc(NC(=O)c2cc(F)c(NS(=O)(=O)[C@@H](C)CO)cc2N2CCC3(CC2)CC3)nc(N2CCC(F)(F)CC2)n1 (single isomer, unassigned) [Example 8-2]

>  <IC50 (nM)>
73

$$$$

Query block: Send back Recombinant human KIF18A (1-467 His-tagged) protein (Homo sapiens (Human)) IC50 of Cc1cc(NC(=O)c2ccc(S(=O)(=O)NC3(C)COC3)cc2N2CCC3(CC2)CC3)nc(NC(C)(C)CO)n1 [Example 1-7] only.
Result block: 168

Query block: Lab note: Recombinant human KIF18A (1-467 His-tagged) protein (Homo sapiens (Human)) assay, enter IC50 for Cc1cc(NC(=O)c2cc(C)c(NS(=O)(=O)CCO)cc2N2CCC3(CC2)CC3)nc(N2CCC(F)(F)CC2)n1 [Example 6-35] here
Result block: 144

Query block: Lab note: Recombinant human KIF18A (1-467 His-tagged) protein (Homo sapiens (Human)) assay, enter IC50 for Cc1cc(NC(=O)c2ccc(NS(=O)(=O)C3([C@H](C)O)CC3)cc2N2CCC3(CC2)CC3)nc(N2CCC(F)(F)CC2)n1 [Example 6-31-2] here
Result block: 281

Query block: Quote IC50 with test system Recombinant human KIF18A (1-467 His-tagged) protein (Homo sapiens (Human)) for Cc1cc(NC(=O)c2ccc(NS(=O)(=O)CCO)cc2N2CCC3(CC2)CC3)nc(N2CCC3(CC3)C2)n1 [Example 11-25]
Result block: 17.6

Query block: # return IC50 for Cc1cc(NC(=O)c2ccc(N3CCOCS3(=O)=O)cc2N2CCC3(CC2)CC3)nc(N2CCC(F)(F)CC2)n1 [Example 6-9] , test system: Recombinant human KIF18A (1-467 His-tagged) protein (Homo sapiens (Human))
Result block: 246

Query block: Given Cc1cc(NC(=O)c2ccc(NS(=O)(=O)[C@H](C)CO)cc2N2CCC3(CC2)CC3)nc(N2CC(F)(F)C2)n1 (single isomer, unassigned) [Example 11-76] , report its IC50 on Recombinant human KIF18A (1-467 His-tagged) protein (Homo sapiens (Human)).
Result block: 20

Query block: Please tell me the measured IC50 for CC[S@](=N)(=O)c1ccc(C(=O)Nc2cc(C)nc(N3CCC(F)(F)CC3)n2)c(N2CCC3(CC2)CC3)c1 (single isomer, unassigned) [Example 19-4] ; system: Recombinant human KIF18A (1-467 His-tagged) protein (Homo sapiens (Human)).
Result block: 35

Query block: Retrieve IC50 on Recombinant human KIF18A (1-467 His-tagged) protein (Homo sapiens (Human)); query Cc1cc(NC(=O)c2ccc(S(=N)(=O)C3CC3)cc2N2CCC3(CC2)CC3)nc(N2CC(F)(F)C2)n1 (stereo not shown) [Example 19-9]
Result block: 69

Query block: # lookup: Recombinant human KIF18A (1-467 His-tagged) protein (Homo sapiens (Human)) IC50, key = Cc1cc(NC(=O)c2ccc(NS(=O)(=O)[C@@H](C)CO)cc2N2CCC3(CC2)CC3)nc(N2CCC(F)CC2)n1 [Example 6-25-1]
Result block: 47

Query block: Retrieve IC50 on Recombinant human KIF18A (1-467 His-tagged) protein (Homo sapiens (Human)); query C[C@@H]1CN(c2nccc(NC(=O)c3ccc(NS(=O)(=O)[C@H](C)CO)cc3N3CCC4(CC3)CC4)n2)CCO1 [Example 6-24-2]
Result block: 28

Query block: Retrieve IC50 on Recombinant human KIF18A (1-467 His-tagged) protein (Homo sapiens (Human)); query O=C(Nc1ccnc(N2CCC(F)(F)CC2)n1)c1ccc(NS(=O)(=O)CCO)cc1N1CCC2(CC1)CC2 [Example 11-57]
Result block: 22

Query block: Jot down IC50 (Recombinant human KIF18A (1-467 His-tagged) protein (Homo sapiens (Human))) of Cc1cc(NC(=O)c2ccc([S@@](=N)(=O)C3CC3)cc2N2CCC3(CC2)CC3)nc(N2CCC(F)(F)CC2)n1 (single isomer, unassigned) [Example 18-2] .
Result block: 57

* * *

Experimental target: Recombinant human KIF18A (1-467 His-tagged) protein (Homo sapiens (Human), UniProt Q8NI77)
Sequence (Q8NI77 1-467): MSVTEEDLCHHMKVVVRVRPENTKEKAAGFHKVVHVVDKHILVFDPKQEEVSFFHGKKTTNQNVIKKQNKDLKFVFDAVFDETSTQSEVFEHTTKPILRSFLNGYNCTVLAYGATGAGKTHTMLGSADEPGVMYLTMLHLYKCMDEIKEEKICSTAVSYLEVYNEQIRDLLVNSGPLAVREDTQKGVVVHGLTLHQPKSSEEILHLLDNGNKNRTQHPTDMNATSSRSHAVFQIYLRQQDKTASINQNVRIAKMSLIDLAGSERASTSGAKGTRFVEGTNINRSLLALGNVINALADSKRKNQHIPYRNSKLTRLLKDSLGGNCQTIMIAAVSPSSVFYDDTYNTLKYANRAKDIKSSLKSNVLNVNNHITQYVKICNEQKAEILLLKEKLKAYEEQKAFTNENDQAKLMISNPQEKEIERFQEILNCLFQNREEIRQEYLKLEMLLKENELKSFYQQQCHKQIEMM
Sequence (P02550 whole entry partner): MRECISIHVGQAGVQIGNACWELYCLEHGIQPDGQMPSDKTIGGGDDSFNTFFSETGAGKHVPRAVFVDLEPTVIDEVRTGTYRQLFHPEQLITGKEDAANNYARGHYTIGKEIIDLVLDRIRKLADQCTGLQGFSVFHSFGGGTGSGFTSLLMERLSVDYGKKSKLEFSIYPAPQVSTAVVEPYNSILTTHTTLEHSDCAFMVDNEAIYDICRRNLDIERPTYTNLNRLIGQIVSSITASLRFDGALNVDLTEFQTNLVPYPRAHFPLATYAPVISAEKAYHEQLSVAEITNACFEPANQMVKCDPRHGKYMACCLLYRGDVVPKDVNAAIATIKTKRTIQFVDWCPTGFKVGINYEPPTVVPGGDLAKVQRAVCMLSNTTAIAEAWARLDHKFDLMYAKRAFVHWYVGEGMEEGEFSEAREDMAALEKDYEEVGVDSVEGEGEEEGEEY
Sequence (P02554 whole entry partner): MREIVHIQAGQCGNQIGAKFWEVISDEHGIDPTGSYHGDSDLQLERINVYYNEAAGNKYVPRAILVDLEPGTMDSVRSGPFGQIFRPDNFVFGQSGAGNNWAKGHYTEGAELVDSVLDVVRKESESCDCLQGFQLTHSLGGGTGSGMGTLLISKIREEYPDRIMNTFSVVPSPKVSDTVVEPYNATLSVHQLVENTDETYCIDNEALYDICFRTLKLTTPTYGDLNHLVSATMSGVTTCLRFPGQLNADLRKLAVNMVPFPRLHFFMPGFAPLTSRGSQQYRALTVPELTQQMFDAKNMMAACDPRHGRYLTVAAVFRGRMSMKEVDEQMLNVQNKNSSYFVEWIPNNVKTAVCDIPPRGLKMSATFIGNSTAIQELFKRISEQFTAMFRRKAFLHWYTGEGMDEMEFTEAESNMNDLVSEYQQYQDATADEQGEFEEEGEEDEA
Assay info: KIF18A Enzyme Assay: microtubule-stimulated ATPase activity (ADP-Glo)
Experimental conditions: read-out: KIF18A ATPase IC50; 30 nM KIF18A, 30 μg/mL pig microtubules, ATP at Km 75 μM, ADP-Glo luminescence
Please map values of IC50 to classes as shown: label 0 (below 60 nM), label 1 (60 nM to below 200 nM), label 2 (200 nM or more)

Solved cases below.
>  <Test smiles>
Cc1cc(NC(=O)c2ccc(NS(=O)(=O)CCO)cc2N2CCC3(CC2)CC3)nc(OC(C)C)n1

>  <Discrete label>
label 0

$$$$
>  <Test smiles>
Cc1cc(NC(=O)c2ccc(S(C)(=O)=O)cc2N2CCC3(CC2)CC3)nc(NCCO)n1

>  <Discrete label>
label 2

$$$$
>  <Test smiles>
COc1cc(C(=O)Nc2cc(C)nc(N3CCC(F)(F)CC3)n2)c(N2CCC3(CC2)CC3)cc1NS(=O)(=O)CCO

>  <Discrete label>
label 1

$$$$
>  <Test smiles>
Cc1cc(NC(=O)c2ccc(NS(=O)(=O)CCO)cc2N2CCC3(CC2)CC3)nc(N2CC[C@@](C)(F)C2)n1

>  <Discrete label>
label 0

$$$$
>  <Test smiles>
Cc1cc(NC(=O)c2ccc(S(=O)(=O)NC3(C)COC3)cc2N2CCC3(CC2)CC3)nc(OCCC(F)(F)F)n1

>  <Discrete label>
label 0

$$$$

Query block: Quick check: band for `CCS(=O)(=O)Nc1ccc(C(=O)Nc2cc(C)nc(N3CCO[C@H](C)C3)n2)c(N2CCC3(CC2)CC3)c1`
Result block: label 1

Query block: GET /class?item= `Cc1cc(NC(=O)c2ccc(NS(=O)(=O)C3CC3)cc2N2CCC3(CC2)CC3)nc(N2CC(F)(F)C2)n1`
Result block: label 2

Query block: Classify this compound: `Cc1cc(NC(=O)c2ccc(NS(=O)(=O)CCO)cc2N2CCC3(CC2)CC3)cc(OCCC(F)(F)F)n1`
Result block: label 1

Query block: Kindly state the category for this compound: `Cc1cc(NC(=O)c2ccc(NS(=O)(=O)CCO)cc2N2CCC3(CC2)CC3)nc(N2CCC(F)(F)C2)n1`
Result block: label 0

Query block: Tag the class for `C[C@@H]1CN(c2nc(NC(=O)c3ccc(NS(=O)(=O)CCO)cc3N3CCC4(CC3)CC4)cc(C(C)(C)O)n2)CCO1`
Result block: label 1

Query block: Using the reported IC50, which band applies to `Cc1cc(NC(=O)c2ccc(S(C)(=O)=O)cc2N2CCC3(CC2)CC3)nc(NC[C@@H](C)O)n1` ?
Result block: label 2

Query block: Which class holds `Cc1cc(NC(=O)c2ccc(NS(=O)(=O)CCO)cc2N2CCC3(CC2)CC3)nc(N2CC(C)(O)C2)n1` ?
Result block: label 2

Query block: Kindly identify the class of `Cc1cc(NC(=O)c2ccc(S(=O)(=O)[C@@H]3COC[C@H]3O)cc2N2CCC3(CC2)CC3)nc(N2CCC(F)(F)CC2)n1` .
Result block: label 1

* * *

Experimental target: Recombinant human KIF18A (1-467 His-tagged) protein (Homo sapiens (Human))
Assay info: KIF18A Enzyme Assay: microtubule-stimulated ATPase activity (ADP-Glo)
Experimental conditions: read-out: KIF18A ATPase IC50; 30 nM KIF18A, 30 μg/mL pig microtubules, ATP at Km 75 μM, ADP-Glo luminescence
Value kind: IC50 (µM)
Dear colleague, please return just the value in µM, with no unit written.

Please review the entries below; each comes with its answer.
>  <Compound>
Cc1cc(NC(=O)c2ccc(NS(=O)(=O)CCO)cc2N2CCC3(CC2)CC3)nc(N2CC3C[C@]3(O)C2)n1 (stereo partly shown) [Example 11-32]

>  <Readout number>
0.193

$$$$
>  <Compound>
Cc1cc(NC(=O)c2ccc(S(=O)(=O)[C@H]3COC[C@@H]3O)cc2N2CCC3(CC2)CC3)nc(N2CCC(F)(F)CC2)n1 [Example 14-8]

>  <Readout number>
0.097

$$$$
>  <Compound>
O=C(Nc1ccnc(N2CCC(F)(F)CC2)c1)c1ccc(S(=O)(=O)NCCO)cc1N1CCC2(CC1)CC2 [Example 17]

>  <Readout number>
0.023

$$$$
>  <Compound>
Cc1cc(NC(=O)c2ccc(NS(=O)(=O)CCO)cc2N2CCC3(CC2)CC3)nc(N2CCC[C@@](C)(F)C2)n1 [Example 11-55]

>  <Readout number>
0.041

$$$$
>  <Compound>
O=C(Nc1ccnc(N2CC(F)C2)n1)c1ccc(NS(=O)(=O)CCO)cc1N1CCC2(CC1)CC2 [Example 11-6]

>  <Readout number>
0.068

$$$$
>  <Compound>
Cc1cc(NC(=O)c2ccc(NS(=O)(=O)C3CCCC3)cc2N2CCC3(CC2)CC3)nc(N2CCC(F)(F)CC2)n1 [Example 6-10]

>  <Readout number>
2.42

$$$$

Query block: Under Recombinant human KIF18A (1-467 His-tagged) protein (Homo sapiens (Human)): report IC50 of Cc1cc(NC(=O)c2ccc(NS(=O)(=O)CCO)cc2N2CCC3(CC2)CC3)nc(N2CC3(COC3)C2)n1 [Example 11-8] .
Result block: 0.64
